- test.system: abc isoform of human TMEM16A channel expressed in CHO cells (Homo sapiens, UniProt Q5XXA6, DEL476-501)
- Sequence (Q5XXA6 with tags, fused parts or gaps isoform Q5XXA6-5 DEL539-564): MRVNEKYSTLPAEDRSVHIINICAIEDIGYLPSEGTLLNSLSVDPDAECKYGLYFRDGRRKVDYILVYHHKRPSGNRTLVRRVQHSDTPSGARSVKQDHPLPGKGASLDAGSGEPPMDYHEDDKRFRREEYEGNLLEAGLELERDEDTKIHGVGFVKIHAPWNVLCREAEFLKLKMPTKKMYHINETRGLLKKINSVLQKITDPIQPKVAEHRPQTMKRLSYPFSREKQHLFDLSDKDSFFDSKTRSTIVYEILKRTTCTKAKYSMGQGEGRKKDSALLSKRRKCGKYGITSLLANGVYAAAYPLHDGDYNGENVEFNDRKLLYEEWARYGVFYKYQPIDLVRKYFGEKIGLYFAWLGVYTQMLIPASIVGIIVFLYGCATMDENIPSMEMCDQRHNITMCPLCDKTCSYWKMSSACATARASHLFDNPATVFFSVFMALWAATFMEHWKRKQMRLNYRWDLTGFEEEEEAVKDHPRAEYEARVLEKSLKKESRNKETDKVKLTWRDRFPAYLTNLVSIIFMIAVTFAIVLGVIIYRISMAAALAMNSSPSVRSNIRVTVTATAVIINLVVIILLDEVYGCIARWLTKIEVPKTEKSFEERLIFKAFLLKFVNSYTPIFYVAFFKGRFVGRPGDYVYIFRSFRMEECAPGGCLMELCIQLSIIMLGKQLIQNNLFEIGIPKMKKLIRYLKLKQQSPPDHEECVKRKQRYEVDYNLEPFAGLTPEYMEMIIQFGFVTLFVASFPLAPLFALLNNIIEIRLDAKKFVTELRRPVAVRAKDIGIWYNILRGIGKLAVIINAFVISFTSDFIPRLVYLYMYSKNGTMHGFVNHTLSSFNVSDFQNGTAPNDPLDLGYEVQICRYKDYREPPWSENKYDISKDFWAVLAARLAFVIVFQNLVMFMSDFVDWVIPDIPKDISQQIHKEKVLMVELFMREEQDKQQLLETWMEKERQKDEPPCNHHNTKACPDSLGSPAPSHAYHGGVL
- assay.text: Automated patch clamping (QPatch) assay to measure TMEM16A activity in whole-cell
- study.conditions: CHO cells expressing human TMEM16A (abc), whole-cell automated patch clamp, Hill fit; read-out: TMEM16A QPATCH assay EC50 V3 EC50
- Text: Automated Patch Clamping Assay to Measure TMEM16A Activity in Whole-Cell […] The ion channel activity of TMEM16A (abc) expressed in CHO cells was assed using an automated patch clamp system (Qpatch, Sophion). […] Curve fitting is constrained between the lowest concentration (vehicle-only addition) and the highest current value measured within the concentration range. […]
quantity: EC50 (nM)

>>> print(df.to_string())
                                    compound  measurement
 0  CCC(CC)NC(=O)c1cnc(-c2cccc(-c3cc(C(=O)NC(C)(C4CC4)C(F)(F)F)n[nH]3)c2)o1 (stereo not drawn)           50
 1  CCC(CC)NC(=O)c1cc(-c2cccc(-c3ncc(C(=O)NC(CC)CC)o3)c2)n[nH]1          290
 2  C[C@H](NC(=O)c1cnc(-c2cccc(-c3nnc(C(=O)NC4CCC(F)(F)CC4)[nH]3)c2)o1)C1CC1          940
 3  C[C@H](NC(=O)c1nnc(-c2cccc(-c3ncc(C(=O)NC(C4CC4)C4CC4)o3)c2)[nH]1)C1CC1           30
 4  CCC(CC)NC(=O)c1cnc(-c2cccc(-c3cc(C(=O)N[C@H](C(=O)OC)C(C)C)n[nH]3)c2)o1          130
 5  C[C@H](NC(=O)c1cc(-c2cccc(-c3ncc(C(=O)N[C@H](C)C4CC4)o3)c2)nn1CCO)C1CC1          680
 6  CCC(CC)NC(=O)c1cnc(-c2cccc(-c3cc(C(=O)NCc4ccc(F)cc4)n[nH]3)c2)o1          550
 7  CCC(CC)NC(=O)c1cnc(-c2cccc(-c3cc(C(=O)NCC4CCCCC4)n[nH]3)c2)o1           30
 8  CCC(CC)NC(=O)c1cnc(-c2cccc(-c3cc(C(=O)N[C@@H](C)C4CC4)n(CCOC(C)C)n3)c2)o1          150
 9  CCOC(=O)[C@@H](NC(=O)c1cnc(-c2cccc(-c3cc(C(=O)NC(C4CC4)C4CC4)n(CC(C)(C)O)n3)c2)o1)C(C)C           30
10  COC(=O)[C@H](CC1CCCCC1)NC(=O)c1cnc(-c2cccc(-c3nnc(C(=O)N[C@@H](C)C4CC4)[nH]3)c2)o1          470
11  CCC(CC)NC(=O)c1cc(-c2cccc(-c3ncc(C(=O)N[C@H](C(=O)OC)c4ccccc4)o3)c2)[nH]n1          410
12  CCOC(=O)[C@@H](NC(=O)c1cnc(-c2cccc(-c3cc(C(=O)NC(CC)C(F)(F)F)[nH]n3)c2)o1)C(C)C (stereo partly drawn)           30
13  CCC(CC)NC(=O)c1cnc(-c2cccc(-c3cc(C(=O)NC4(C5CC5)CC4)n[nH]3)c2)o1          170
14  CCC(CC)NC(=O)c1cnc(-c2cccc(-c3cc(C(=O)NC(Cc4ccccc4)C(=O)OC)n[nH]3)c2)o1 (stereo not drawn)          350
15  CCC(CC)NC(=O)c1cnc(-c2cccc(-c3cc(C(=O)N4CCCCC4)n[nH]3)c2)o1          840
16  CCC(CC)NC(=O)c1cc(-c2cccc(-c3ncc(C(=O)Nc4cccc(C#N)c4)o3)c2)[nH]n1          920
17  CCOC(=O)[C@H](CCSC)NC(=O)c1cnc(-c2cccc(-c3cc(C(=O)NC(CC)CC)n[nH]3)c2)o1          680
18  CCC(CC)NC(=O)c1cnc(-c2cccc(-c3cc(C(=O)NCc4ccc5c(c4)OCO5)n[nH]3)c2)o1          140
19  CCC(CC)NC(=O)c1cnc(-c2cccc(-c3cc(C(=O)NC(CC)C(C)C)n[nH]3)c2)o1 (stereo not drawn)           40
20  COC(=O)C1(NC(=O)c2cnc(-c3cccc(-c4cc(C(=O)N[C@@H](C)C5CC5)[nH]n4)c3)o2)CCC1          400
